Value source: paper PMC3853718

Assay: clinical
Conditions: human, plasma, intravenous, 2.59 mg/m2
value.type: Cmax (ng/mL)

compound | value.type | units.text | obs.value
CCc1cnn2c(NCc3ccc[n+]([O-])c3)cc(N3CCCC[C@H]3CCO)nc12 [dinaciclib] | Cmax | ng/mL | 104

###

Test: clinical
Conditions: human, plasma, intravenous, 2.59 mg/m2
value.type: half-life (h)

compound | units.text | obs.value
CCc1cnn2c(NCc3ccc[n+]([O-])c3)cc(N3CCCC[C@H]3CCO)nc12 [dinaciclib] | h | 3.6

###

Test: clinical
Conditions: human, plasma, intravenous, 5.08 mg/m2

molecule | Cmax (ng/mL)
CCc1cnn2c(NCc3ccc[n+]([O-])c3)cc(N3CCCC[C@H]3CCO)nc12 [dinaciclib] | 173

###

Test: clinical
Conditions: human, plasma, intravenous, 12 mg/m2
value.type: Tmax (h)

compound | value.type | obs.value
CCc1cnn2c(NCc3ccc[n+]([O-])c3)cc(N3CCCC[C@H]3CCO)nc12 [dinaciclib] | Tmax | 2

###

Test: clinical
Conditions: human, plasma, intravenous, 3.63 mg/m2

mol | AUC(0-inf)
CCc1cnn2c(NCc3ccc[n+]([O-])c3)cc(N3CCCC[C@H]3CCO)nc12 | 431 ng·h/mL

###

Test: clinical
Conditions: human, plasma, intravenous, 7.11 mg/m2

mol | units.text | AUC(0-t)
CCc1cnn2c(NCc3ccc[n+]([O-])c3)cc(N3CCCC[C@H]3CCO)nc12 | ng·h/mL | 542

###

Assay: Plasma pharmacokinetics after 2-hour IV infusion (LC-MS/MS)
Conditions: read-out: AUC(I) Mean; Day 15, 7.11 mg/m^2, N 7 (n=6)
value.type: AUC(0-inf) (ng·h/mL)

compound | value.type | obs.value
CCc1cnn2c(NCc3ccc[n+]([O-])c3)cc(N3CCCC[C@H]3CCO)nc12 [dinaciclib] | AUC(0-inf) | 686

###

Assay: clinical
Conditions: human, plasma, intravenous, 10 mg/m2
value.type: AUC(0-inf)

mol | value.type | obs.value
CCc1cnn2c(NCc3ccc[n+]([O-])c3)cc(N3CCCC[C@H]3CCO)nc12 | AUC(0-inf) | 687 ng·h/mL

###

Test: clinical
Conditions: human, plasma, intravenous, 1.32 mg/m2

mol | units.text | AUC(0-t)
CCc1cnn2c(NCc3ccc[n+]([O-])c3)cc(N3CCCC[C@H]3CCO)nc12 | ng·h/mL | 134

###

Assay: clinical
Details: human, plasma, intravenous, 14 mg/m2
value.type: Cmax (ng/mL)

mol | obs.value
CCc1cnn2c(NCc3ccc[n+]([O-])c3)cc(N3CCCC[C@H]3CCO)nc12 | 821

###

Assay: clinical
Settings: human, plasma, intravenous, 10 mg/m2
value.type: half-life (h)

mol | value.type | units.text | obs.value
CCc1cnn2c(NCc3ccc[n+]([O-])c3)cc(N3CCCC[C@H]3CCO)nc12 | half-life | h | 3.02

###

Test: clinical
Conditions: human, plasma, intravenous, 5.08 mg/m2

compound | Tmax [h]
CCc1cnn2c(NCc3ccc[n+]([O-])c3)cc(N3CCCC[C@H]3CCO)nc12 [dinaciclib] | 2

###

Experiment: clinical
Conditions: human, plasma, intravenous, 10 mg/m2

molecule | units.text | AUC(0-t)
CCc1cnn2c(NCc3ccc[n+]([O-])c3)cc(N3CCCC[C@H]3CCO)nc12 [dinaciclib] | ng·h/mL | 694

###

Test: clinical
Settings: human, plasma, intravenous, 2.59 mg/m2
value.type: Tmax (h)

mol | obs.value
CCc1cnn2c(NCc3ccc[n+]([O-])c3)cc(N3CCCC[C@H]3CCO)nc12 | 1

###

Experiment: clinical
Settings: human, plasma, intravenous, 14 mg/m2
value.type: Tmax (h)

mol | obs.value
CCc1cnn2c(NCc3ccc[n+]([O-])c3)cc(N3CCCC[C@H]3CCO)nc12 | 1

###

Experiment: clinical
Conditions: human, plasma, intravenous, 1.32 mg/m2
value.type: half-life (h)

molecule | units.text | obs.value
CCc1cnn2c(NCc3ccc[n+]([O-])c3)cc(N3CCCC[C@H]3CCO)nc12 [dinaciclib] | h | 3.38

###

Experiment: Plasma pharmacokinetics after 2-hour IV infusion (LC-MS/MS)
Conditions: read-out: AUC(tf) Mean; Day 1, 2.59 mg/m^2, N 3

compound | units.text | AUC(0-t)
CCc1cnn2c(NCc3ccc[n+]([O-])c3)cc(N3CCCC[C@H]3CCO)nc12 [dinaciclib] | ng·h/mL | 809

###

Assay: clinical
Details: human, plasma, intravenous, 3.63 mg/m2

mol | units.text | half-life
CCc1cnn2c(NCc3ccc[n+]([O-])c3)cc(N3CCCC[C@H]3CCO)nc12 | min | 215

###

Test: clinical
Details: human, plasma, intravenous, 0.66 mg/m2

mol | units.text | half-life
CCc1cnn2c(NCc3ccc[n+]([O-])c3)cc(N3CCCC[C@H]3CCO)nc12 | h | 1.67

###

Assay: clinical
Settings: human, plasma, intravenous, 0.66 mg/m2

mol | AUC(0-inf)
CCc1cnn2c(NCc3ccc[n+]([O-])c3)cc(N3CCCC[C@H]3CCO)nc12 | 27.6 ng·h/mL

###

Assay: clinical
Conditions: human, plasma, intravenous, 3.63 mg/m2
value.type: Tmax (h)

mol | value.type | units.text | obs.value
CCc1cnn2c(NCc3ccc[n+]([O-])c3)cc(N3CCCC[C@H]3CCO)nc12 | Tmax | h | 1

###

Assay: clinical
Details: human, plasma, intravenous, 1.32 mg/m2
value.type: AUC(0-inf) (ng·h/mL)

mol | value.type | obs.value
CCc1cnn2c(NCc3ccc[n+]([O-])c3)cc(N3CCCC[C@H]3CCO)nc12 | AUC(0-inf) | 134

###

Experiment: clinical
Conditions: human, plasma, intravenous, 3.63 mg/m2

compound | AUC(0-t) (ng·h/mL)
CCc1cnn2c(NCc3ccc[n+]([O-])c3)cc(N3CCCC[C@H]3CCO)nc12 [dinaciclib] | 405

###

Test: clinical
Conditions: human, plasma, intravenous, 0.66 mg/m2
value.type: Cmax

molecule | value.type | obs.value
CCc1cnn2c(NCc3ccc[n+]([O-])c3)cc(N3CCCC[C@H]3CCO)nc12 [dinaciclib] | Cmax | 13.2 ng/mL

###

Test: clinical
Conditions: human, plasma, intravenous, 14 mg/m2

compound | AUC(0-t), ng·h/mL
CCc1cnn2c(NCc3ccc[n+]([O-])c3)cc(N3CCCC[C@H]3CCO)nc12 [dinaciclib] | 2020

###

Test: clinical
Details: human, plasma, intravenous, 12 mg/m2

mol | AUC(0-inf) / ng·h/mL
CCc1cnn2c(NCc3ccc[n+]([O-])c3)cc(N3CCCC[C@H]3CCO)nc12 | 1150

###

Assay: clinical
Conditions: human, plasma, intravenous, 0.33 mg/m2

compound | units.text | AUC(0-t)
CCc1cnn2c(NCc3ccc[n+]([O-])c3)cc(N3CCCC[C@H]3CCO)nc12 [dinaciclib] | ng·h/mL | 42.8

###

Experiment: Plasma pharmacokinetics after 2-hour IV infusion (LC-MS/MS)
Conditions: read-out: AUC(tf) Mean; Day 15, 10 mg/m^2, N 3
value.type: AUC(0-t) (ng·h/mL)

mol | obs.value
CCc1cnn2c(NCc3ccc[n+]([O-])c3)cc(N3CCCC[C@H]3CCO)nc12 | 704

###

Assay: Plasma pharmacokinetics after 2-hour IV infusion (LC-MS/MS)
Settings: read-out: AUC(tf) Mean; Day 15, 12 mg/m^2, N 10

compound | AUC(0-t) [ng·h/mL]
CCc1cnn2c(NCc3ccc[n+]([O-])c3)cc(N3CCCC[C@H]3CCO)nc12 [dinaciclib] | 1270

###

Assay: Plasma pharmacokinetics after 2-hour IV infusion (LC-MS/MS)
Conditions: read-out: AUC(tf) Mean; Day 1, 1.32 mg/m^2, N 1
value.type: AUC(0-t)

mol | obs.value
CCc1cnn2c(NCc3ccc[n+]([O-])c3)cc(N3CCCC[C@H]3CCO)nc12 | 112 ng·h/mL

###

Assay: clinical
Conditions: human, plasma, intravenous, 5.08 mg/m2
value.type: half-life

mol | obs.value
CCc1cnn2c(NCc3ccc[n+]([O-])c3)cc(N3CCCC[C@H]3CCO)nc12 | 3.19 h

###

Test: clinical
Details: human, plasma, intravenous, 1.85 mg/m2

mol | half-life [h]
CCc1cnn2c(NCc3ccc[n+]([O-])c3)cc(N3CCCC[C@H]3CCO)nc12 | 2.66

###

Experiment: clinical
Details: human, plasma, intravenous, 7.11 mg/m2
value.type: Cmax

mol | value.type | obs.value
CCc1cnn2c(NCc3ccc[n+]([O-])c3)cc(N3CCCC[C@H]3CCO)nc12 | Cmax | 0.25 µg/mL

###

Experiment: Plasma pharmacokinetics after 2-hour IV infusion (LC-MS/MS)
Conditions: read-out: AUC(tf) Mean; Day 15, 2.59 mg/m^2, N 3

molecule | units.text | AUC(0-t)
CCc1cnn2c(NCc3ccc[n+]([O-])c3)cc(N3CCCC[C@H]3CCO)nc12 [dinaciclib] | ng·h/mL | 739

###

Test: clinical
Settings: human, plasma, intravenous, 0.66 mg/m2

mol | units.text | AUC(0-t)
CCc1cnn2c(NCc3ccc[n+]([O-])c3)cc(N3CCCC[C@H]3CCO)nc12 | ng·h/mL | 28.4
